B1: library; a variant is named by its letters at N, in order (parent)
chain: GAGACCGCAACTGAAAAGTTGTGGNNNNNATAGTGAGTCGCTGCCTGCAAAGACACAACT

Variants of: B1
Assay: ligation selection enrichment (abundance after / before one-round selection) (fold); higher = more template-directed ligation activity
Conditions: with T7Psub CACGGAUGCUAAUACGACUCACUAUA; MgCl2 25 mM; 42 °C; 4 h; pH 8.5
Recorded ligation selection enrichment determines the label; the label ranges are lower: < 0.3; middle: ≥ 0.3 and < 0.8; upper: ≥ 0.8

Solved entries (count: 3):
{"columns": ["mutation code", "assigned category"],
 "data": [
  ["GTAAA", "middle"],
  ["TCGAT", "upper"],
  ["TGGAA", "upper"]
]}

Q: Category lookup for the variant `ACTAA`
A: lower

Q: Now consider `TGGGA` and answer again.
A: lower

Q: Now consider `TCTCC` and answer again.
A: lower

Q: Now consider `CCCGG` and answer again.
A: middle

Q: Now consider `TGTAT` and answer again.
A: upper

Q: Now consider `ACCGT` and answer again.
A: lower

Q: Now consider `GTGAC` and answer again.
A: upper

Q: Now consider `CCATA` and answer again.
A: lower

Q: Now consider `GTCCC` and answer again.
A: lower
